Molecular target: human ASBT (Homo sapiens)
Type: cell-based
Conditions: read-out: Estimated Ki for ASBT
// NB: equality with 100 µM counts as Criterion not met; only potency estimated from few doses strictly below is Criterion met

[[record]]
molecule = "CCc1nn(CCCN2CCN(c3cccc(Cl)c3)CC2)c(=O)n1CCOc1ccccc1"
tested_system = "human ASBT (Homo sapiens)"
label_value = "Criterion met"

[[record]]
molecule = "CC(C(=O)O)c1cccc(C(=O)c2ccccc2)c1 (centres unmarked)"
tested_system = "human ASBT (Homo sapiens)"
label_value = "Criterion not met"

[[record]]
molecule = "CCC(C)n1ncn(-c2ccc(N3CCN(c4ccc(OCC5COC(Cn6cncn6)(c6ccc(Cl)cc6Cl)O5)cc4)CC3)cc2)c1=O (centres unmarked)"
tested_system = "human ASBT (Homo sapiens)"
label_value = "Criterion met"

[[record]]
molecule = "NC(N)=Nc1nc(CSCCC(N)=NS(N)(=O)=O)cs1"
tested_system = "human ASBT (Homo sapiens)"
label_value = "Criterion not met"


Task: # TODO verify potency estimated from few doses < 100 µM strictly for this molecule: `CCCN(CCC)CCc1cccc2c1CC(=O)N2`
Output: Criterion met

Task: Same for `COC(=O)[C@@H]1[C@H]2C[C@H]3c4[nH]c5ccccc5c4CCN3C[C@@H]2CC[C@@H]1O`
Output: Criterion not met

Task: And what about the molecule `O=C1[C@H](CC[C@H](O)c2ccc(F)cc2)[C@@H](c2ccc(O)cc2)N1c1ccc(F)cc1` ?
Output: Criterion met

Task: Let us now turn to `CCCCC1=NC2(CCCC2)C(=O)N1Cc1ccc(-c2ccccc2-c2nnn[nH]2)cc1`
Output: Criterion not met

====

Target: UniProt:Q12908
Type: cell-based
Details: inhibitor = Ki below 300 μM
MEASURE: ASBT inhibitor or non-inhibitor

[[record]]
compound = "Cc1ncc([N+](=O)[O-])n1CCO [Metronidazole]"
tested_system = "UniProt:Q12908"
measure = "ASBT inhibitor or non-inhibitor"
measured = "ASBT inhibitors"

[[record]]
compound = "Clc1ccc(COC(Cn2ccnc2)c2ccc(Cl)cc2Cl)c(Cl)c1 (stereo not shown) [Miconazole]"
tested_system = "UniProt:Q12908"
measure = "ASBT inhibitor or non-inhibitor"
measured = "ASBT inhibitors"

[[record]]
compound = "CCC(C)n1ncn(-c2ccc(N3CCN(c4ccc(OCC5COC(Cn6cncn6)(c6ccc(Cl)cc6Cl)O5)cc4)CC3)cc2)c1=O (stereo not shown) [Itraconazole]"
tested_system = "UniProt:Q12908"
measure = "ASBT inhibitor or non-inhibitor"
measured = "ASBT inhibitors"


====

Target: human NTCP (Homo sapiens)
Assay type: cell-based
Conditions: read-out: Estimated Ki for NTCP
MEASURE: potency estimated from few doses

[[record]]
molecule = "Cc1ccc(NC(=O)c2ccc(CN3CCN(C)CC3)cc2)cc1Nc1nccc(-c2cccnc2)n1"
measured = "673 µM"

[[record]]
molecule = "CN1CCN(CCCN2c3ccccc3Sc3ccc(Cl)cc32)CC1"
measured = "280 µM"

[[record]]
molecule = "CN(C)CCCN1c2ccccc2Sc2ccc(Cl)cc21"
measured = "767 µM"

[[record]]
molecule = "CCCN(CCC)CCc1cccc2c1CC(=O)N2"
measured = "> 100 µM"


Field: next molecule
Task: Sample CC(=O)CC(c1ccccc1)c1c(O)c2ccccc2oc1=O (centres unmarked) — what was its potency estimated from few doses?
Output: > 100 µM

====

Biological target: human NTCP (Homo sapiens)
Assay type: cell-based
Conditions: inhibitor = Ki less than 300 μM
MEASURE: NTCP inhibitor or non-inhibitor

[[record]]
molecule = "CC(=O)N1CCN(c2ccc(OCC3COC(Cn4ccnc4)(c4ccc(Cl)cc4Cl)O3)cc2)CC1 (stereo not shown) [Ketoconazole]"
measured = "NTCP inhibitors"

[[record]]
molecule = "COc1ccc2c(c1)c(CC(=O)O)c(C)n2C(=O)c1ccc(Cl)cc1 [Indomethacin]"
measured = "NTCP inhibitors"


====

Target: human ASBT (Homo sapiens, UniProt Q12908)
Sequence (Q12908 whole entry): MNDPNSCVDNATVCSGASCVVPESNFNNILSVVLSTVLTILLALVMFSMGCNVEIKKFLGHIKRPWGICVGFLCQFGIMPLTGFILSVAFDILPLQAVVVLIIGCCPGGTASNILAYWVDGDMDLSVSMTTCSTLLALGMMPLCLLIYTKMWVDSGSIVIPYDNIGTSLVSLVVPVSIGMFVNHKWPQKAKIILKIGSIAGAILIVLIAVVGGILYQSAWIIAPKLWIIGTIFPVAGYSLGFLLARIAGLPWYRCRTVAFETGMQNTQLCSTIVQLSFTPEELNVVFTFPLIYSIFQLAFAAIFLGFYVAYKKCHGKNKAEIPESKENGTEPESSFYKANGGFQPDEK
Assay type: cell-based
Conditions: read-out: Estimated Ki for ASBT
MEASURE: potency estimated from few doses (µM)
Only the number, expressed in µM, is required.

[[record]]
compound = "C=C[C@H]1C[N@@]2CC[C@H]1C[C@H]2[C@H](O)c1ccnc2ccc(OC)cc12"
measure = "potency estimated from few doses"
measured = 239

[[record]]
compound = "CC(C)c1nc(CN(C)C(=O)N[C@H](C(=O)N[C@@H](Cc2ccccc2)C[C@H](O)[C@H](Cc2ccccc2)NC(=O)OCc2cncs2)C(C)C)cs1"
measure = "potency estimated from few doses"
measured = 47.3


Task: // lookup potency estimated from few doses for `COC(=O)[C@H]1[C@H]2C[C@@H]3c4[nH]c5cc(OC)ccc5c4CCN3C[C@H]2C[C@@H](OC(=O)c2cc(OC)c(OC)c(OC)c2)[C@@H]1OC`
Output: 21.6

Task: One more compound: `CCOC(=O)C1=C[C@@H](OC(CC)CC)[C@H](NC(C)=O)[C@@H](N)C1`
Output: 1020

====

Target: human NTCP (Homo sapiens, UniProt Q14973)
Format: cell-based
Settings: inhibitor = Ki less than 300 μM
MEASURE: NTCP inhibitor or non-inhibitor

See these solved cases before continuing.
[[record]]
molecule = "COC(=O)C1=C(C)NC(C)=C(C(=O)OC(C)C)C1c1cccc2nonc12 (stereo not shown)"
measure = "NTCP inhibitor or non-inhibitor"
measured = "NTCP inhibitors"

[[record]]
molecule = "COc1ccc2cc([C@H](C)C(=O)O)ccc2c1"
measure = "NTCP inhibitor or non-inhibitor"
measured = "inhibited NTCP"

[[record]]
molecule = "CN1CCN(CCCN2c3ccccc3Sc3ccc(Cl)cc32)CC1"
measure = "NTCP inhibitor or non-inhibitor"
measured = "NTCP inhibitors"

[[record]]
molecule = "CC[C@H](C)C(=O)O[C@H]1C[C@@H](C)C=C2C=C[C@H](C)[C@H](CC[C@@H]3C[C@@H](O)CC(=O)O3)[C@H]21"
measure = "NTCP inhibitor or non-inhibitor"
measured = "NTCP inhibitors"

[[record]]
molecule = "O=C1[C@H](CC[C@H](O)c2ccc(F)cc2)[C@@H](c2ccc(O)cc2)N1c1ccc(F)cc1"
measure = "NTCP inhibitor or non-inhibitor"
measured = "NTCP inhibitors"


Task: What is its NTCP inhibitor or non-inhibitor for human NTCP (Homo sapiens, UniProt Q14973)? Entry: CCCC1O[C@@H]2C[C@H]3[C@@H]4CCC5=CC(=O)C=C[C@]5(C)[C@H]4[C@@H](O)C[C@]3(C)[C@]2(C(=O)CO)O1 (stereo partly shown) [Budesonide]
Output: inhibited NTCP

Task: Here is the next molecule: CC(C)[C@H]1CC[C@H](C(=O)N[C@H](Cc2ccccc2)C(=O)O)CC1 [Nateglinide]
Output: inhibited NTCP

Task: And what about the molecule CCC(C)n1ncn(-c2ccc(N3CCN(c4ccc(OCC5COC(Cn6cncn6)(c6ccc(Cl)cc6Cl)O5)cc4)CC3)cc2)c1=O (stereo not shown) ?
Output: NTCP inhibitors

Task: Another: COc1cc2nc(N3CCN(C(=O)C4COc5ccccc5O4)CC3)nc(N)c2cc1OC (stereo not shown)
Output: inhibited NTCP

Task: Now try `CCc1nn(CCCN2CCN(c3cccc(Cl)c3)CC2)c(=O)n1CCOc1ccccc1` .
Output: NTCP inhibitors

====

Molecular target: human NTCP (Homo sapiens, UniProt Q14973)
Format: cell-based
Settings: read-out: Estimated Ki for NTCP
MEASURE: potency estimated from few doses (µM)
State the answer as a number, implicitly in µM.

[[record]]
compound = "CC(C(=O)O)c1cccc(C(=O)c2ccccc2)c1 (stereo not drawn)"
measure = "potency estimated from few doses"
measured = 361


Task: # potency estimated from few doses lookup, item Clc1ccc(COC(Cn2ccnc2)c2ccc(Cl)cc2Cl)cc1 (stereo not drawn)
Output: 416

Task: Lookup `CCc1nn(CCCN2CCN(c3cccc(Cl)c3)CC2)c(=O)n1CCOc1ccccc1`
Output: 100

Task: Quick one: `C[C@H]1C[C@@H]2[C@H]([C@@H](O)C[C@@]3(C)[C@H]2CC[C@]3(O)C(=O)CO)[C@@]2(C)C=CC(=O)C=C12`
Output: 255

Task: // same read-out, input: O=C1C(CC[S+]([O-])c2ccccc2)C(=O)N(c2ccccc2)N1c1ccccc1 (stereo not drawn)
Output: 1660

Task: Try `CC[C@H](C)C(=O)O[C@H]1C[C@@H](C)C=C2C=C[C@H](C)[C@H](CC[C@@H]3C[C@@H](O)CC(=O)O3)[C@H]21` next.
Output: 202

Task: And the next one, COc1cc2nc(N3CCN(C(=O)C4COc5ccccc5O4)CC3)nc(N)c2cc1OC (stereo not drawn) ?
Output: 41.2

====

Molecular target: human NTCP (Homo sapiens, UniProt Q14973)
Sequence (Q14973 1-349): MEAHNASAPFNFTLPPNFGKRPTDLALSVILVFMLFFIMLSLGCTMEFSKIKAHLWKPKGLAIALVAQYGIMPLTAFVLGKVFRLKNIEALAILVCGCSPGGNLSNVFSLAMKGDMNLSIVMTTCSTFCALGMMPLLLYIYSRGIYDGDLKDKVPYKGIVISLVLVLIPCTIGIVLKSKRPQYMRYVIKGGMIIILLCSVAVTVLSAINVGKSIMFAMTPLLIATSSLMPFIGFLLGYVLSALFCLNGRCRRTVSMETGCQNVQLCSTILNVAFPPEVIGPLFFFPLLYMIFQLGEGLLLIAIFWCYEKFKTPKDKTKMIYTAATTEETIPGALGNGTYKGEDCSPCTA
Format: cell-based
Conditions: read-out: Estimated Ki for NTCP
Decide using potency estimated from few doses alone. Strictly below 400 µM: 1. Equal to or above 400 µM: -1.

# count of solved cases: 3
[[record]]
molecule = "C=C[C@H]1C[N@@]2CC[C@H]1C[C@H]2[C@H](O)c1ccnc2ccc(OC)cc12 [Quinine]"
label_value = -1

[[record]]
molecule = "O=C1[C@H](CC[C@H](O)c2ccc(F)cc2)[C@@H](c2ccc(O)cc2)N1c1ccc(F)cc1 [Ezetimibe]"
label_value = 1

[[record]]
molecule = "CCN(CC)CCCC(C)Nc1ccnc2cc(Cl)ccc12 (centres unmarked) [Chloroquine]"
label_value = 1


Task: Dear reviewer, please state whether CCCN(CCC)S(=O)(=O)c1ccc(C(=O)O)cc1 [Probenecid] has potency estimated from few doses strictly beneath 400 µM.
Output: -1

Task: Would you kindly repeat that for Cc1ncc([N+](=O)[O-])n1CCO [Metronidazole] ?
Output: 1
